B1: Cyclin-F, residues 28 to 80; numbered along this chain, P41002 (parent)
chain: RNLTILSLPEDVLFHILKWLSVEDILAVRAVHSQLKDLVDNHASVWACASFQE

variants of: B1; experiment: abundance fitness (aPCA) (normalised: wild type 0, dead -1); higher = more abundant; growth selection in yeast, the domain comes from the species named; conditions: Homo sapiens
reported endpoint: abundance fitness

Query (variant): "L35H" ; field requested: abundance fitness -0.831

# get_value(readout='abundance fitness', item= "H42T" ) -0.487

Which abundance fitness value belongs to "S21Y" ? -0.566

Fill blank: measured abundance fitness of the variant "C48I" is ____. -0.306

Which abundance fitness is listed for "H32V" ? -0.532

# get_value(readout='abundance fitness', item= "E10I" ) -0.576

What measured abundance fitness goes with "H42Y" ? -0.365

Bench note: what abundance fitness did "E23A" show? -0.053

Record request: abundance fitness value, item "Q52T" -0.135

For "I25K" , what is its reported abundance fitness? -0.568

So what does the record say about abundance fitness for "W46E" ? -0.016

What value of measured abundance fitness is listed for "D11N" ? 0.046

Sample "Q52I" — what was its abundance fitness? -0.109

Recorded abundance fitness of "V39S" , please. -0.445

Query (variant): "V28Q" ; field requested: abundance fitness -0.716

What value of abundance fitness has been reported for the following variant? "F51P" -0.184

Any idea what abundance fitness was measured for "L6N" ? -0.691

Please report the recorded abundance fitness for "C48T" . -0.066

Bench note: what abundance fitness did "S21P" show? -0.047

Query: abundance fitness; subject: "I5G" -0.78

Requested field: abundance fitness. Item: "D11A" 0.028

Name the reported abundance fitness value associated with the variant "A49E" -0.125

Fill blank: measured abundance fitness of the variant "L17R" is ____. -0.774

Look up abundance fitness for this variant: "C48S" 0.14

Can you share its abundance fitness? I mean this variant: "S7P" -0.767

Dear colleague, I am looking for the recorded abundance fitness of the following variant: "F51E" -0.38

Requested read-out: abundance fitness. Entry: "A47E" -0.365

Look up abundance fitness for this variant: "V39M" -0.781

# query: abundance fitness of entry "L3E" -0.727

Recorded abundance fitness for "H15F" , please? -0.499

I would be grateful if you could share the reported abundance fitness for "L17V" . -0.169

Name the reported abundance fitness value associated with the variant "Q52W" -0.19

Give its abundance fitness value. Item: "I5A" -0.657

Please report the recorded abundance fitness for "D24V" . -0.784

# abundance fitness lookup, item "V22Y" 0.02

# query: abundance fitness of entry "H42D" -0.746

Given the entry "K18G" , report its measured abundance fitness. -0.132

State the recorded abundance fitness for this entry: "I25L" -0.33

Requested field: abundance fitness. Item: "C48L" 0.075

May I ask what abundance fitness has been recorded for "R29A" ? -0.827

Consider the variant shown here: "E10A" What is its recorded abundance fitness? -0.208

Name the recorded abundance fitness for "E53P" . -0.375

Data request, read-out abundance fitness, for "V12Q" -0.747

So what's the measured abundance fitness for this one? "S7A" -0.427

// lookup abundance fitness for "D24F" -1.06

I'd like to know its abundance fitness. The variant in question is "P9G" -0.413

Return reported abundance fitness; argument: "A49Q" 0.088

If you can, please state the reported abundance fitness value of "I5W" . -0.615

I'd like to know its abundance fitness. The variant in question is "E10K" 0.24

Tell me the measured abundance fitness of "V31Y" , please. -0.964

Looking for the measured abundance fitness of "S33V" , can you help? -0.544

I am curious: what abundance fitness value has been reported for "W46Y" ? -0.469

For "V22R" , what is its reported abundance fitness? -0.177

Which abundance fitness value belongs to "F51S" ? -0.194

Quick one: abundance fitness of "I16R" ? -0.501

Which abundance fitness value is on record for "V39A" ? -0.341

For "Q52L" , what is its reported abundance fitness? -0.07

What abundance fitness value was documented for this variant, "N41F" ? -0.692

What abundance fitness value was documented for this variant, "H32K" ? -0.912

# get_value(readout='abundance fitness', item= "S33R" ) -0.158

Can you look up the measured abundance fitness of "W19S" for me? -0.057

So what's the measured abundance fitness for this one? "L38C" 0.17

# get_value(readout='abundance fitness', item= "I25S" ) -0.783

Which abundance fitness value belongs to "L35C" ? -0.643

// abundance fitness lookup, key: "D24W" -0.717

Please give the measured abundance fitness for this variant: "N41H" -0.035

Find the recorded abundance fitness belonging to "A43T" and report it. -0.416

What abundance fitness value was documented for this variant, "F14T" ? 0.061

Which abundance fitness reading was recorded for the variant "V31W" ? -0.769

Find the recorded abundance fitness belonging to "S44Y" and report it. -0.428

Find the recorded abundance fitness belonging to "V31G" and report it. -0.672

Query: abundance fitness; subject: "L35Y" -0.687

Recorded abundance fitness of "S44M" , please. -0.223

May I ask what abundance fitness has been recorded for "E23H" ? -0.358

Look up abundance fitness: "S33W" -0.48

I'd like to know its abundance fitness. The variant in question is "L17I" 0.148

For the variant shown here, "L26D" , give the reported abundance fitness. -0.961

Field request: abundance fitness | item: "D37P" -1.02

Any idea what its abundance fitness is? The variant is "S33I" -0.855

// returns reported abundance fitness for input "L3K" -0.354

What does the record list as abundance fitness for "Q52K" ? 0.011

# query: abundance fitness of entry "A49G" 0.089

Item "L26P" has what recorded abundance fitness? -0.694

Which abundance fitness is listed for "E10G" ? -0.566
